meta.source: patent US9745328B2

- target.or.test.system: human FLAP (Homo sapiens (Human), UniProt P20292)
- Sequence (P20292 whole entry): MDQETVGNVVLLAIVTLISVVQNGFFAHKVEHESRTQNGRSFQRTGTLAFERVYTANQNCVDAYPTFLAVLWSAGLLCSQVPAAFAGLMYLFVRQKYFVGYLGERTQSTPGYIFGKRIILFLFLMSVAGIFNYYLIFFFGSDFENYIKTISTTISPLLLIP
- test.name: FLAP binding assay (HTRF format)
- cond: human FLAP wild type, Table 6 (additional runs)
Can you tell me pKi for the items I'm about to list?
Answer as the number alone; pKi is minus log10 of concentration in mol/L.

# input Give the measured pKi of CC(C)(C)NS(=O)(=O)c1ccccc1-c1ccc(-c2cnc(N)c(N)n2)c(F)c1 [Example 428] .
# output 8.37

# input Need pKi, item Nc1cnc(-c2ccc(-c3ccccc3OCC3CCS(=O)(=O)CC3)cc2F)cn1 [Example 884]
# output 6.62

# input If you can, please state the reported pKi value of Nc1ncc(-c2ccc(-c3cccnc3S(=O)(=O)C3CCS(=O)(=O)CC3)cc2F)cn1 [Example 819] .
# output 7.13

# input Give the measured pKi of COCCn1cc(-c2ccccc2-c2ccc(-c3cnc(N)cn3)c(F)c2)cn1 [Example 869] .
# output 6.85

# input Please give the measured pKi for this molecule: Nc1cnc(-c2ccc(-c3ccccc3Oc3ccnc(N)n3)cc2F)cn1 [Example 533]
# output 8.35

# input Quick one: pKi for Nc1ncc(-c2ccc(-c3cccnc3Oc3ccccc3)cc2F)cn1 [Example 895] ?
# output 7.88

# input What measured pKi goes with Nc1cnc(-c2ccc(-c3ccccc3OC(F)(F)F)cc2F)cn1 [Example 475] ?
# output 7.05

# input So what does the record say about pKi for CC(C)(C)NS(=O)(=O)c1ccccc1-c1ccc(-c2cnc(N)c(C#N)n2)c(F)c1 [Example 434] ?
# output 8.96

====

- Test system: leukotriene pathway in human whole blood (LTB4)
- test.name: Human whole blood assay (LTB4 levels after calcium ionophore A23187 stimulation)
- Assay type: cell-based
- cond: Homo sapiens, Table 6 (additional runs); human whole blood diluted 1:1, A23187 stimulation; read-out: Human Whole Blood LTB4 IC50 1:1
Where a name gives a salt, the structure may show the parent alone.
Could you please report measured IC50 for the items listed next?
Answer format: numeric, nM implied, no suffix.

# input Requested read-out IC50, target or system leukotriene pathway in human whole blood (LTB4), entry Nc1cnc(-c2ccc(-c3ccccc3S(=O)(=O)N3CC[C@@H](N)C3)cc2F)cn1 [Example 92]
# output 309

# input Identify the measured IC50 of Nc1cnc(-c2ccc(-c3ccccc3S(=O)(=O)N[C@H]3c4ccccc4C[C@@H]3O)cc2F)cn1 [Example 158] for leukotriene pathway in human whole blood (LTB4).
# output 1.4

# input Give the reported IC50 for Nc1cnc(-c2ccc(-c3ccccc3S(=O)(=O)N3CCC[C@@H]3CO)cc2F)cn1 [Example 91] (system: leukotriene pathway in human whole blood (LTB4)).
# output 38.3

# input Given the entry Nc1cnc(-c2ccc(-c3ccccc3S(=O)(=O)NC[C@H](O)c3ccccc3)cc2F)cn1 [Example 117] , what IC50 was observed with leukotriene pathway in human whole blood (LTB4)?
# output 6.6

# input What is its IC50 for leukotriene pathway in human whole blood (LTB4)? Entry: Nc1cnc(-c2ccc(-c3ccccc3S(=O)(=O)C3CCC3)cc2F)cn1 [Example 196]
# output 96.3

# input State its IC50 on leukotriene pathway in human whole blood (LTB4): CCCCCCS(=O)(=O)c1ccccc1-c1ccc(-c2cnc(N)cn2)c(F)c1 [Example 198]
# output 819

# input # get_value(readout= IC50, system= leukotriene pathway in human whole blood (LTB4)) for C[C@H](O)CNS(=O)(=O)c1ccccc1-c1ccc(-c2cnc(N)nc2)c(F)c1 [Example 279, trifluoroacetic acid salt]
# output 118

# input Item: CN1CCN(S(=O)(=O)c2cc(C(F)(F)F)ccc2-c2ccc(-c3cnc(N)cn3)c(F)c2)CC1 [Example 212] Test system: leukotriene pathway in human whole blood (LTB4) Read-out: IC50 Value: ?
# output 5.3

# input Form entry - test system: leukotriene pathway in human whole blood (LTB4); read-out: IC50; compound: Nc1cnc(-c2ccc(-c3ccccc3S(=O)(=O)N3CCCCC3)cc2F)cn1 [Example 43]
# output 38.1

# input Request - read-out IC50 | tested on leukotriene pathway in human whole blood (LTB4) | compound CC(C)(C)NS(=O)(=O)c1ccccc1-c1ccc(-c2cnc3[nH]ccc3c2)c(F)c1 [Example 367]
# output 5.6

# input Param readout = IC50; param system = leukotriene pathway in human whole blood (LTB4); param query = CN1CCN(S(=O)(=O)c2ccccc2-c2ccc(-c3cnc(N)cn3)c(F)c2)CC1 [Example 54] ; response: value
# output 41.3

# input Param readout = IC50; param system = leukotriene pathway in human whole blood (LTB4); param query = CCCS(=O)(=O)Nc1ccccc1-c1ccc(-c2cnc(N)cn2)c(F)c1 [Example 36] ; response: value
# output 137

# input Form field: IC50 recorded for Nc1cnc(-c2ccc(-c3ccccc3S(=O)(=O)N3CCNCC3)cc2F)cn1 [Example 46] with leukotriene pathway in human whole blood (LTB4) (enter value)
# output 177

# input Recorded IC50 for Nc1cnc(-c2ccc(-c3ccccc3S(=O)(=O)N[C@@H]3c4ccccc4C[C@H]3O)cc2F)cn1 [Example 159] with leukotriene pathway in human whole blood (LTB4), please?
# output 1.3

# input Hello, I am looking for reported IC50 with leukotriene pathway in human whole blood (LTB4) for Nc1cnc(-c2ccc(-c3ccccc3S(=O)(=O)N[C@H]3c4ccccc4C[C@H]3O)cc2F)cn1 [Example 160] . Could you help?
# output 5.3
